inhibition listing for selected molecules.
TESTED_ON: Cholinesterase (Equus caballus)
MEASUREMENT_PARAMETERS: at 2 mg/mL
Description: Inhibition of horse BChE at 2 mg/ml by Ellman's method
READOUT_NAME: inhibition (%)

# MOLECULE, READOUT_NAME, VAL
data = [
    ("C/C1=C\\CC(C)(C)/C=C/C(=O)/C(C)=C/CC1", "inhibition", 4.2),
    ("CC(C)C[C@H](NC(=O)[C@H]1O[C@@H]1C(=O)O)C(=O)NCCCCN=C(N)N", "inhibition", 12.1),
    ("COc1ccc(-c2cc(=O)c3ccc(O)cc3o2)cc1", "inhibition", 6.46),
    ("CN1C2CCCC1CC(=O)C2", "inhibition", 1.42),
    ("CN1c2ccccc2C(=O)N2CCc3c([nH]c4ccccc34)[C@@H]21", "inhibition", 26),
    ("C[C@H]1CCC[C@@H](O)CCCCCc2cc(O)cc(O)c2C(=O)O1", "inhibition", -4.26),
    ("COc1cc(CNC(=O)CCCC/C=C/C(C)C)ccc1O", "inhibition", 6.29),
    ("C[n+]1cc2c3c(ccc2c2ccc4cc5c(cc4c21)OCO5)OCO3", "inhibition", 1.3),
    ("COc1c2occc2cc2ccc(=O)oc12", "inhibition", 8.34),
    ("C[C@@H]1O[C@@H](O[C@H]2[C@H](Oc3cc(O)c4c(=O)cc(-c5ccc(O)cc5)oc4c3)O[C@H](CO)[C@@H](O)[C@@H]2O)[C@H](O)[C@H](O)[C@H]1O", "inhibition", -2.37),
    ("C=C[C@H]1CN2CC[C@H]1C[C@@H]2[C@@H](O)c1ccnc2ccc(OC)cc12 [QUINIDINE]", "inhibition", 66),
    ("CC[C@H]1CN2CCc3cc(OC)c(OC)cc3[C@@H]2C[C@@H]1C[C@H]1NCCc2cc(OC)c(OC)cc21", "inhibition", 1.38),
    ("O=C(/C=C/C=C/c1ccc2c(c1)OCO2)N1CCCCC1", "inhibition", 16.8),
    ("CC1=C2C(=CO[C@H](C)[C@H]2C)C(O)=C(C(=O)O)C1=O", "inhibition", 11.3),
    ("O=C(O)CCCc1c[nH]c2ccccc12", "inhibition", -5.54),
    ("O=c1oc2c(O)c(O)cc3c(=O)oc4c(O)c(O)cc1c4c23", "inhibition", 4.4),
    ("CCN1C[C@]2(COC)[C@H](O)C[C@H](OC)[C@@]34[C@@H]5C[C@@]6(O)[C@H](OC(=O)c7ccccc7)[C@@H]5[C@@](OC(C)=O)([C@@H]([C@H](OC)[C@H]23)[C@@H]14)[C@@H](O)[C@@H]6OC", "inhibition", 3.01),
    ("CC(C)(O)CC[C@@H](O)[C@](C)(O)[C@H]1CC[C@@]2(O)C3=CC(=O)[C@@H]4C[C@@H](O)[C@@H](O)C[C@]4(C)[C@H]3CC[C@]12C", "inhibition", -3.01),
    ("CC[C@]12CCCN3CCc4c(n(c5ccccc45)[C@@](O)(C(=O)OC)C1)[C@@H]32", "inhibition", 3.22),
]

* * *

TESTED_ON: Acetylcholinesterase (Electrophorus electricus)
MEASUREMENT_PARAMETERS: at 2 mg/mL
Description: Inhibition of electric eel AChE at 2 mg/ml by Ellman's method
Structures can show the parent of a compound that is named as a salt.

# MOLECULE, inhibition [%]
rows = [
    ("O=C1C[C@@H](c2ccc(O)c(O)c2)Oc2c1ccc(O[C@@H]1O[C@H](CO)[C@@H](O)[C@H](O)[C@H]1O)c2O", 8.08),
    ("O=c1cc(-c2ccccc2)oc2cc(O)ccc12", 24.4),
    ("COC(=O)/C(=C1/OC(=O)C(c2ccccc2)=C1O)c1ccccc1", 4.9),
    ("COc1cc(/C=C/C(=O)CC(=O)/C=C/c2ccc(O)c(OC)c2)ccc1O", -2.21),
    ("O=c1c(O)c(-c2cc(O)c(O)c(O)c2)oc2cc(O)cc(O)c12", 4.65),
    ("COc1ccc2c3c([nH]c2c1)C(C)=NCC3", 40.4),
    ("c1ccc2c(c1)CN1CCCC1=N2 [DESOXYPEGANINE HYDROCHLORIDE HYDRATE]", 70.6),
    ("CC1(C)[C@@H](O)CC[C@]2(C)[C@H]3C(=O)C=C4[C@@H]5C[C@@](C)(C(=O)O)CC[C@]5(C)CC[C@@]4(C)[C@]3(C)CC[C@@H]12", -3.12),
    ("C[C@H]1[C@H](C)CC[C@]2(C(=O)O)CC[C@]3(C)C(=CC[C@@H]4[C@@]5(C)C[C@@H](O)[C@H](O)[C@@](C)(CO)[C@@H]5[C@H](O)C[C@]43C)[C@H]12", -1.33),
    ("CC1=C[C@]23C(=O)[C@@H](C=C(CO)[C@@H](O)[C@]2(O)[C@H]1O)[C@H]1[C@@H](C[C@H]3C)C1(C)C", -4.51),
    ("CC[C@@H]1C(=O)OC[C@@H]1Cc1cncn1C", 20),
    ("CC(=O)O[C@H]1[C@H]2[C@@H](OC(=O)Cc3ccccc3)[C@@H](C)C[C@]2(OC(C)=O)C(=O)/C(C)=C/[C@@H]2[C@H](CC[C@@]13CO3)C2(C)C", -2.46),
    ("COc1cc(/C=C/C(=O)O)ccc1O", -1.29),
    ("CN1Cc2c(ccc3c2OCO3)[C@@H]2[C@H]1c1cc3c(cc1C[C@@H]2O)OCO3", 29.8),
    ("CC[C@@H](C(=O)O)[C@@H]1O[C@@H]([C@@H](C)[C@H](O)[C@H](C)C(=O)[C@H](CC)[C@H]2O[C@]3(C=C[C@@H](O)[C@]4(CC[C@@](C)([C@H]5CC[C@](O)(CC)[C@H](C)O5)O4)O3)[C@H](C)C[C@@H]2C)[C@@H](C)C[C@@H]1C", -1.36),
    ("C[N+]1([O-])[C@@H]2C[C@H](OC(=O)[C@H](CO)c3ccccc3)C[C@@H]1[C@H]1O[C@H]12 (stereo partly specified)", -6.51),
]
